Target: T1, purified interference factor(s) from Donor C (human)
T1 construct: the text names the donors 8, 19 and 30; also called interference in serum from Donor C
Assay: SPR, interference factor immobilized; % of Fig. 9 reference
parameter: interference binding, % of Reference Sequence

[
  {
    "binder": "SEQ ID NO: 79 (VHH) VHH: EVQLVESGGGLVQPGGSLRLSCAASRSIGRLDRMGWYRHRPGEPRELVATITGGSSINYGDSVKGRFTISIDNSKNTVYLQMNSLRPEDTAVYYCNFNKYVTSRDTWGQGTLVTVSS",
    "result value": "13%"
  },
  {
    "binder": "SEQ ID NO: 76 (VHH) VHH: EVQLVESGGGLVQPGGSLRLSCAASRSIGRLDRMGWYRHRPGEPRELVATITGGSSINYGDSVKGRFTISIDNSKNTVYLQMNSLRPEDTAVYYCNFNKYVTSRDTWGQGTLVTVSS",
    "result value": "20%"
  },
  {
    "binder": "SEQ ID NO: 67 (VHH) VHH: EVQLVESGGGLVQPGGSLRLSCAASRSIGRLDRMGWYRHRPGEPRELVATITGGSSINYGDSVKGRFTISIDNSKNTVYLQMNSLKPEDTAVYYCNFNKYVTSRDTWGQGTLVTVSS",
    "result value": "96%"
  },
  {
    "binder": "SEQ ID NO: 80 (VHH) VHH: EVQLVESGGGLVQPGGSLRLSCAASRSIGRLDRMGWYRHRPGEPRELVATITGGSSINYGDSVKGRFTISIDNSKNTVYLQMNSLRPEDTAVYYCNFNKYVTSRDTWGQGTLVQVGG",
    "result value": "58%"
  }
]
